Source listed as patent US12480137B2.

System: A. thaliana WT L. erecta
Assay: Greenhouse phytotox, pre-emergent treatment
Format: in vivo, Arabidopsis thaliana
Details: 0.25 g ai/ha
Hi there, I'd appreciate the recorded Phytotox value on a scale from 0-100 (100 is 100% damage) for every entry that follows.

Example entries begin here.
CC(C)(F)c1nc(N)nc(Nc2nc(F)c(F)c(Cl)c2F)n1 = 60
CC(C)(F)c1nc(N)nc(Nc2c(F)c(F)c(Br)c(F)c2F)n1 = 8
Nc1nc(Nc2c(F)c(F)c(F)c(F)c2F)nc(C2CCCC2)n1 = 38

Which Phytotox value on a scale from 0-100 (100 is 100% damage) reading was recorded for the compound `CC(C)(F)c1nc(N)nc(Nc2c(F)c(F)c(F)c(F)c2F)n1` ? 78

###

System: Cesa3_S1040L, fpx1-1 mutant line
Experiment: Greenhouse phytotox, pre-emergent treatment
Type: in vivo, Arabidopsis thaliana
Settings: 3.91 g ai/ha
Decision: Phytotox value on a scale from 0-100 (100 is 100% damage) >= 50 yields Met, all other cases yield Not met.

Answer whether Phytotox value on a scale from 0-100 (100 is 100% damage) of `CC(C)(F)c1nc(N)nc(Nc2nc(F)c(F)c(Cl)c2F)n1` is greater than or equal to 50. Met

Answer whether Phytotox value on a scale from 0-100 (100 is 100% damage) of Cc1cccc(-n2nc(C(N)=O)nc2-c2ccccc2)c1 [reference compound] is greater than or equal to 50. Not met

Answer whether Phytotox value on a scale from 0-100 (100 is 100% damage) of `Nc1nc(Nc2c(F)c(F)cc(F)c2F)nc(-c2c(F)cccc2F)n1` is greater than or equal to 50. Not met

Answer whether Phytotox value on a scale from 0-100 (100 is 100% damage) of `CC(C)(F)c1nc(N)nc(Nc2c(F)c(F)c(F)c(F)c2F)n1` is greater than or equal to 50. Met

Answer whether Phytotox value on a scale from 0-100 (100 is 100% damage) of `CC(C)(F)c1nc(N)nc(Nc2c(F)c(F)c(Br)c(F)c2F)n1` is greater than or equal to 50. Met

Answer whether Phytotox value on a scale from 0-100 (100 is 100% damage) of `Nc1nc(Nc2c(F)c(F)c(F)c(F)c2F)nc(C2CCCC2)n1` is greater than or equal to 50. Not met

###

Hi there, I'd appreciate the recorded Relative tolerance rate (wildtype = 1.0) for every entry that follows.
System: Arabidopsis mutant line Cesa1_G1013R
Test: Growth inhibition of Arabidopsis lines in 48-well plates, tolerance factor from IC50
Format: in vivo, Arabidopsis thaliana
Details: growth inhibition seven to ten days after seeding
One number for each entry.

Example entries begin here.
CC(C)(F)c1nc(N)nc(Nc2nc(F)c(F)c(Cl)c2F)n1 = 10
Nc1nc(Nc2c(F)c(F)c(F)c(F)c2F)nc(C2CCCCC2)n1 = 4
CC(C)(F)c1nc(N)nc(Nc2c(F)c(F)c(F)c(F)c2F)n1 = 4
Nc1nc(Nc2c(F)c(F)cc(F)c2F)nc(-c2c(F)cccc2F)n1 = 13

Below: the item to evaluate.
Which Relative tolerance rate (wildtype = 1.0) reading was recorded for the compound `Nc1nc(Nc2c(F)c(F)c(F)c(F)c2F)nc(C2CCCC2)n1` ? 25

###

System: Cesa1_G1013R, fpx2-1 mutant line
Assay: Greenhouse phytotox, pre-emergent treatment
Assay type: in vivo, Arabidopsis thaliana
Details: 0.25 g ai/ha
Measurement type: Phytotox value on a scale from 0-100 (100 is 100% damage)
One number for each entry.

Example entries begin here.
Nc1nc(Nc2c(F)c(F)c(F)c(F)c2F)nc(C2CCCC2)n1 = 5
CC(C)(F)c1nc(N)nc(Nc2c(F)c(F)c(Br)c(F)c2F)n1 = 10
CC(C)(F)c1nc(N)nc(Nc2nc(F)c(F)c(Cl)c2F)n1 = 50

Below: the item to evaluate.
Which Phytotox value on a scale from 0-100 (100 is 100% damage) reading was recorded for the compound `CC(C)(F)c1nc(N)nc(Nc2c(F)c(F)c(F)c(F)c2F)n1` ? 65
